# METHOD SUMMARY: Drug uptake in Sprague-Dawley rat lung at 20 mg/kg, po measured at 0.5 hrs by LC-MS/MS analysis
# Type: ADME, organism-based
# CONDITIONS USED: read-out: Drug uptake
MEASUREMENT NAME: concentration at 0.5 h (ng/g)
Enter your answer as a number in ng/g; do not include the unit.

query: Recorded concentration at 0.5 h of CCn1c(=O)[nH]c(=O)c2c1nc(Cc1cn3cc(C)sc3n1)n2CC1COC1 , please.
result: 482

---

# ASSAYED SYSTEM: Tryptophan 5-hydroxylase 1 (Homo sapiens)
# Sequence (P17752 whole entry): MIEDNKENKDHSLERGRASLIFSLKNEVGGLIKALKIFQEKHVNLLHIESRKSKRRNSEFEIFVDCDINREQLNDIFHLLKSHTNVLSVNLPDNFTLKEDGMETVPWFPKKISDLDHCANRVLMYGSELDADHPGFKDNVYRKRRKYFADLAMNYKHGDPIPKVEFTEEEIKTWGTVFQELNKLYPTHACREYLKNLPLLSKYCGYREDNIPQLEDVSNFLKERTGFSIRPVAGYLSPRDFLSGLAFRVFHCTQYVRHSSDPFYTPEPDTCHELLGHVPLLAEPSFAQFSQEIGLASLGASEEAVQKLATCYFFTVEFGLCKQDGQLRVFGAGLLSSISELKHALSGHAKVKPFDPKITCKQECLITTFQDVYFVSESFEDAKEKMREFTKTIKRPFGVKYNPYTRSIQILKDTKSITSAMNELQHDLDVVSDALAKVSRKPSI
# METHOD SUMMARY: Inhibition of recombinant MBP-tagged full length human THP1 using L-Trp as substrate assessed as formation of 5-HTP by measuring fluorescent property
Listing of recorded pIC50 by entry.
pIC50 is defined as minus the log10 of a concentration measured in mol/L.

| MOLECULE | pIC50 |
| --- | --- |
| CCn1c(=O)[nH]c(=O)c2c1nc(Cc1cn3cc(C)sc3n1)n2Cc1cccc(C(=O)O)c1 | 6.45 |
| CCn1c(=O)[nH]c(=O)c2c1nc(Cc1cn3cc(C)sc3n1)n2Cc1cccc(C)n1 | 6.71 |
| CCn1c(=O)[nH]c(=O)c2c1nc(Cc1cn3cc(C)sc3n1)n2C(C)C | 6.64 |
| CCOC(=O)CCCn1c(Cc2cn3cc(C)sc3n2)nc2c1c(=O)[nH]c(=O)n2CC | 6.97 |
| CCn1c(=O)[nH]c(=O)c2c1nc(Cc1cn3cc(C)sc3n1)n2CCC(=O)OC | 6.27 |

query: Recorded pIC50 of CCc1nc(C)ccc1OCC(=O)N1CCc2nc3n(c2C1c1ccc(Cl)cc1F)CCCC3 (racemic) , please.
result: 6.82

query: And CCn1c(=O)[nH]c(=O)c2c1nc(Cc1cn3cc(C)sc3n1)n2CCC=C(C)C ?
result: 6.17

query: And CCn1c(=O)[nH]c(=O)c2c1nc(Cc1cn3cc(C)sc3n1)n2Cc1ccccn1 ?
result: 7.08

query: And CCn1c(=O)[nH]c(=O)c2c1nc(Cc1cn3cc(C)sc3n1)n2Cc1ccc(C(F)(F)F)cc1 ?
result: 6.57
